Data provenance: paper PMC9742639

Exercise: for every item that follows, state its recorded Relative phosphorylation by GSK3b.
Target: GSK3b (Homo sapiens)
Construct: GST; purchased SignalChem G09-10G
Sequence (P49841 whole entry): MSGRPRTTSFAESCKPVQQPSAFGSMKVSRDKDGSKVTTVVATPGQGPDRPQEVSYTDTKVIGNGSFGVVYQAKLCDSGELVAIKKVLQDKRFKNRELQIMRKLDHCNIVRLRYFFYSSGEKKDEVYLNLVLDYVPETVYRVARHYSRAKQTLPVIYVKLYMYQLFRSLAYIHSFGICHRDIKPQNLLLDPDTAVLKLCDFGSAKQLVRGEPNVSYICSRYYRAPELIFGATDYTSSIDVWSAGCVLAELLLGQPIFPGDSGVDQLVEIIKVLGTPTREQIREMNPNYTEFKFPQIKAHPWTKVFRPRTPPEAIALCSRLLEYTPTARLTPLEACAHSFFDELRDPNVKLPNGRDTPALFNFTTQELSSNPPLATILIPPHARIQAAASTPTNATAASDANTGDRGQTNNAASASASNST
Assay: In vitro phosphorylation of nucleocapsid peptides, ADP-Glo
Type: biochemical
Conditions: kinase with ATP alone, no peptide = 100; peptide ~250 μM, ATP 250 μM, 30 min
Square brackets hold non-standard residues; d marks the D form. Primed or numbered codes have the meaning given here. Ends that are not written are not given here. pS′ = not defined here; pT′ = not defined here
Answers are plain numbers.

Solved cases (3 shown):
{"SUBSTANCE": "RGGSQASSRSS(pS)RS (RGGSQASSRSS[pS′]RS) [SCV2-N [177-190] - pS188, synthetic peptide modeled after SARS-CoV-2 nucleocapsid phosphorylation sites, pre-phosphorylated at S188]", "RECORDED_VALUE": 1209}
{"SUBSTANCE": "SSRSRNSSRNS(pT)PG (SSRSRNSSRNS[pT′]PG) [SCV2-N [187-200] - pT198, synthetic peptide modeled after SARS-CoV-2 nucleocapsid phosphorylation sites, pre-phosphorylated at T198]", "RECORDED_VALUE": 1042}
{"SUBSTANCE": "RNSTPGSSRGT(pS)PAR (RNSTPGSSRGT[pS′]PAR) [SCV2-N [195-209] - pS206, synthetic peptide modeled after SARS-CoV-2 nucleocapsid phosphorylation sites, pre-phosphorylated at S206]", "RECORDED_VALUE": 1068}

## Input Look up and report measured Relative phosphorylation by GSK3b for this entry: SQASSRSSSR(pS)RNS (SQASSRSSSR[pS′]RNS) [SCV2-N [180-193] - pS190, synthetic peptide modeled after SARS-CoV-2 nucleocapsid phosphorylation sites, pre-phosphorylated at S190]
## Output 111

* * *

Biological target: PKCa (Homo sapiens)
Construct: GST; purchased SignalChem P61-18G
Assay: In vitro phosphorylation of nucleocapsid peptides, ADP-Glo
Assay type: biochemical
Details: Mean ± Standard deviation, n = 3; no peptide substrate 1282 ± 51
Square brackets hold non-standard residues; d marks the D form. Primed or numbered codes have the meaning given here. Ends that are not written are not given here. pS′ = not defined here; pT′ = not defined here
OUTCOME_MEASURE: Phosphorylation by PKCa (Table 2)
Answers are plain numbers.

Record Phosphorylation by PKCa (Table 2) per entry; entries follow.
1. RNSTPGSSRGT(pS)PAR (RNSTPGSSRGT[pS′]PAR) [SCV2-N [195-209] - pS206, synthetic peptide modeled after SARS-CoV-2 nucleocapsid phosphorylation sites, pre-phosphorylated at S206]
2. RGGSQASSRSS(pS)RS (RGGSQASSRSS[pS′]RS) [SCV2-N [177-190] - pS188, synthetic peptide modeled after SARS-CoV-2 nucleocapsid phosphorylation sites, pre-phosphorylated at S188]
3. SSRSRNSSRNS(pT)PG (SSRSRNSSRNS[pT′]PG) [SCV2-N [187-200] - pT198, synthetic peptide modeled after SARS-CoV-2 nucleocapsid phosphorylation sites, pre-phosphorylated at T198]
4. SQASSRSSSR(pS)RNS (SQASSRSSSR[pS′]RNS) [SCV2-N [180-193] - pS190, synthetic peptide modeled after SARS-CoV-2 nucleocapsid phosphorylation sites, pre-phosphorylated at S190]

## Output
[1531, 3861, 7032, 4161]

* * *

Target: PKACa (Homo sapiens, UniProt P17612)
Assay: In vitro phosphorylation of nucleocapsid peptides, ADP-Glo
Assay type: biochemical
Details: kinase with ATP alone, no peptide = 100; peptide ~250 μM, ATP 250 μM, 30 min
Square brackets hold non-standard residues; d marks the D form. Primed or numbered codes have the meaning given here. Ends that are not written are not given here. pS′ = not defined here; pT′ = not defined here
Kindly state Relative phosphorylation by PKACa for each of the entries shown.
Answers are plain numbers.

{"SUBSTANCE": "SSRSRNSSRNS(pT)PG (SSRSRNSSRNS[pT′]PG) [SCV2-N [187-200] - pT198, synthetic peptide modeled after SARS-CoV-2 nucleocapsid phosphorylation sites, pre-phosphorylated at T198]", "Relative phosphorylation by PKACa": 157}

Go through the items and report each one's Relative phosphorylation by PKACa.
1. RGGSQASSRSS(pS)RS (RGGSQASSRSS[pS′]RS) [SCV2-N [177-190] - pS188, synthetic peptide modeled after SARS-CoV-2 nucleocapsid phosphorylation sites, pre-phosphorylated at S188]
2. RNSTPGSSRGT(pS)PAR (RNSTPGSSRGT[pS′]PAR) [SCV2-N [195-209] - pS206, synthetic peptide modeled after SARS-CoV-2 nucleocapsid phosphorylation sites, pre-phosphorylated at S206]
3. SQASSRSSSR(pS)RNS (SQASSRSSSR[pS′]RNS) [SCV2-N [180-193] - pS190, synthetic peptide modeled after SARS-CoV-2 nucleocapsid phosphorylation sites, pre-phosphorylated at S190]

## Output
1: 128; 2: 205; 3: 312
